This collection of values is drawn from patent US4565817A.

For each record, write down the corresponding inhibition in vivo at 50 mg/kg.
- Test system: guinea pigs
- Experiment Description: Cough relieving against 15% citric acid spray in guinea pigs, one hour after administration
- Format: in vivo
- Recorded Conditions: Cavia porcellus, im, 1 h, one hour after 50 mg/kg i.m., % related to the control, read-out: Cough inhibition Q %
- Description: Q = Cough relieving induced by 15% citric acid spray in guinea pigs one hour after administration of the substances (50 mg/kg, i.m.) expressed in % related to the control.
Answers are plain numbers, in %.

Worked cases, inhibition in vivo at 50 mg/kg given:
COc1ccc2c3c1O[C@H]1[C@@H](O)C=C[C@H]4[C@@H](C2)N(C)CC[C@@]341 [Codeine, reference compound]
50
CCN(CC)CCc1nc(CCCn2cnc3c2c(=O)n(C)c(=O)n3C)no1
51.5
CN1CCN(CCc2nc(CC(O)Cn3cnc4c3c(=O)n(C)c(=O)n4C)no2)CC1 (centres unmarked)
48.6
Cn1c(=O)c2c(ncn2CCc2noc(CCN3CCOCC3)n2)n(C)c1=O
48.6

Data request: Any idea what its inhibition in vivo at 50 mg/kg is? The compound is `CCCc1nc(Cn2cnc3c2c(=O)n(C)c(=O)n3C)no1`
Data returned: 51.1
